Answer each item with its documented kon.
measurement.target: T1, hFc-mC3d fusion protein (human; mouse, UniProt P01027 1002-1303, limits assumed)
T1 construct: domain: C3d; not shown: human IgG Fc (hFc), captured by an anti-human IgG CH2 mAb
T1 sequence (P01027 1002-1303 limits assumed): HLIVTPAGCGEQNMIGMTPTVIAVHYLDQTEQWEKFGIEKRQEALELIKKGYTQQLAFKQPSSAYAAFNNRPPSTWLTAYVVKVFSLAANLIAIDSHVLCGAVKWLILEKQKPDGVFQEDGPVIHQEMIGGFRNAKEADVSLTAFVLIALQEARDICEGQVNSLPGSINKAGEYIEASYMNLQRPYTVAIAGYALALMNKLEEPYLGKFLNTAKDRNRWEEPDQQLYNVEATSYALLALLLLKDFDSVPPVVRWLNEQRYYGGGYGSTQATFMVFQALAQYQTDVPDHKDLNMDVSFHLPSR
procedure.text: SPR (Biacore X100), Fab over captured hFc-mC3d
Please give a number only; it is taken to be in M⁻¹ s⁻¹.

In: Give its kon value. Item: Ab3 Fab (His-tagged rabbit/human chimeric anti-C3d Fab) (Fab, V domains shown, Fab with rabbit Vκ/human Cκ/rabbit VH, His-tagged; also called Ab3 (κ)) VH: QKQLVESGGRLVTPGGSLTLTCTISGIDLNTYGMTWVRQAPGKGLEYIGIIVSSGNTYYANWAQGRFTISKTSTTVDLKMTSLTASDTATYFCARGLGRAYSSGYGMDGWGPGTLVTVSS VL: DPVLTQTPSSTSAAVGGTVTIKCQASQNIYTSLAWYQQKPGQPPKLLIYGASNLASGVPSRFKGSRSGTEYTLTISGVEREDAATYYCLGSYTQIDTTFGGGTKLEIK
Out: 232000

In: Next entry: Ab2 Fab (His-tagged rabbit/human chimeric anti-C3d Fab) (Fab, V domains shown, Fab with rabbit Vκ/human Cκ/rabbit VH, His-tagged; also called Ab2 (κ)) VH: QSVEESGGRLVTPGTPLTLTCTVSGFSLSSYAMTWVRQAPGKGLEWIGVIGTSGMRYYANWAKGRFTISKTSTTVDLKITSPTTEDTATYFCARANFYVGNDESTDAFDPWGPGTLVTVSS VL: ALVMTQTPPSLSASVGETVRIRCLASEDIYNTISWYQQKPGKPPTLLIYGASNLKSGVPPRFSGSGSGTDYTLTIGGVQSEDAATYYCLGGYSYSSTGLTFGAGTKVEIK
Out: 193000

In: Next entry: Ab4 Fab (His-tagged rabbit/human chimeric anti-C3d Fab) (Fab, V domains shown, Fab with rabbit Vκ/human Cκ/rabbit VH, His-tagged; also called Ab4 (κ)) VH: QSLEESGGRLVTPGTPLTLTCTVSGFSLSRYTMAWVRQAPGKGLEYIGWIDSSGSTYYASWAKGRFTISKTSSTTVDLKMTSLTTEDTATYFCASGNDGGDPLYYGMDPWGPGTLVTVSS VL: DGVMTQTPSSTSAAVGGTVTIKCQASQSIRSWLSWYQQKPGQPPKLLIYEASKLASGVPSRFKGSRSGTEYTLAISGVQREDAATYYCLGSIASDDTAFGAGTNVEIK
Out: 60600

In: Next entry: Ab5 Fab (His-tagged rabbit/human chimeric anti-C3d Fab) (Fab, V domains shown, Fab with rabbit Vκ/human Cκ/rabbit VH, His-tagged; also called Ab5 (κ)) VH: QSLEESGGRLVTPGTPLTLTCTVSGFSLSTYTLGWVRQAPGKGLEYIGWIDSSGSAYYASWAKGRFTISKASSTTVDLKMAGLTTEDTATYFCASGNTGGDPLYYGMDPWGPGTLVTVSS VL: DPVLTQTPSSTSAAVGGTVTIKCQASQNIGRWLAWYQQKPGQPPKLLIYRASDLASGVPSRFKGSGSGTQFTLTISGVQREDAATYYCLGSYSSSDSAFGGGTEVVVK
Out: 248000

Numbers sourced from patent US20260022165A1.
